# SYSTEM_UNDER_TEST: AMPA type receptors
# METHOD_DESCRIPTION: 3H-AMPA binding (Test 1)
# TEST_CONDITIONS: rat cerebral cortical membrane homogenate; 5 nM 3H-AMPA; pH 7.1; 0° C., 30 min; read-out: TEST 1 IC50 (displacement of 50% of the specific binding of 3H-AMPA)
# Protocol: AMPA receptor binding may be studied by using ^3 H-AMPA as radioligand. […] 500 μl of thawed rat cerebral cortical membrane homogenate in Tris-HCl (30 mM), CaCl2 (2.5 mM) and KSCN (100 mM) pH 7.1 were incubated at 0° C. for 30 min. with 25 μl ^3 H-AMPA (5 nM final concentration) and the test compound and buffer. Nonspecific binding was determined by incubation with L-glutamic acid (600 μM final concentration). […] Bound radioactivity was measured by scintillation counting. […]
ASSAY_ENDPOINT: IC50 (nM)
Only the number, expressed in nM, is required.

Check AMPA type receptors data and give IC50 for O=c1[nH]c2cc(-n3ccnc3)c(C(F)(F)F)cc2n2c(=O)[nH]nc12 [Example 2] .
1700

Check AMPA type receptors data and give IC50 for O=c1[nH]c2cc(-n3ccnc3)ccc2n2c(=O)[nH]nc12 [Example 1] .
180
